# method_summary: Metabolic stability in pooled human liver microsomes (half-life)
# Type: in vitro ADME
# condition_summary: pooled human liver microsomes, pH 7.6, 37° C., 1 μM test compound, read-out: Half-life t1/2
measured_parameter: half-life at 1 μM

Below, 3 molecules whose answers are already recorded.
CC(C)(NC(=O)[C@H]1[C@@H]2CNC[C@@H]21)c1nccc2ccccc12.Cl [Example 24]
> 2.17 h
CC(C)(COc1ccccc1Cl)NC(=O)[C@H]1[C@@H]2CNC[C@@H]21.Cl [Example 42]
> 2.17 h
Cc1cccn2c(C3(NC(=O)[C@H]4[C@@H]5CNC[C@@H]54)CC3)ncc12 [Example 145]
> 2.17 h

Switching to the query record.
So what's the measured half-life at 1 μM for this one? Cn1nc(C(C)(C)NC(=O)[C@H]2[C@@H]3CNC[C@@H]32)c2ccccc21 [Example 49]
> 2.17 h

###

In this section we review reported Ki values for a set of compounds.
# experimental_system: human SSTR2 (Homo sapiens (Human), UniProt P30874)
# Sequence (P30874 whole entry): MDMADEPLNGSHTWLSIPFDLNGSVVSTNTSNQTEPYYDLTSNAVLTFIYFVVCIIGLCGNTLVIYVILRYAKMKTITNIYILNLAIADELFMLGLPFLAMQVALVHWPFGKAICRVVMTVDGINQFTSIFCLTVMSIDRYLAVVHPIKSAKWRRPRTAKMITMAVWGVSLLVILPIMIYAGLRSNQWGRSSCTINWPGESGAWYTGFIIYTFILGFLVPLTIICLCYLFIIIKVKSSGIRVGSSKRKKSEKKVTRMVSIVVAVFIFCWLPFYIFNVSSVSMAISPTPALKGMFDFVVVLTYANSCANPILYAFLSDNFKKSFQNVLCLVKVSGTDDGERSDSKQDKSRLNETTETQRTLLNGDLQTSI
# method_summary: Radioligand binding assay, CHO cell membranes expressing recombinant human SSTR2

Below, 3 compounds whose answers are already recorded.
CC(C)(COc1cnccc1C(F)(F)F)NC(=O)[C@H]1[C@@H]2CNC[C@@H]21
> 7.88 µM
Cc1cccn2c(C(C)(C)NC(=O)[C@H]3[C@@H]4CNC[C@@H]43)nc(C3CC3)c12
> 9.63 µM
Cc1ncc(C(C)(C)NC(=O)[C@H]2[C@@H]3CNC[C@@H]32)c2ccccc12
> 9.63 µM

So what's the measured Ki for this one? `CC(C)(NC(=O)[C@H]1[C@@H]2CNC[C@@H]21)c1nc2ccc(Cl)cc2[nH]1.Cl`
> 9.59 µM

Same question for `Cc1cccc2c(C(C)(C)NC(=O)[C@H]3[C@@H]4CNC[C@@H]43)nn(C)c12` please.
> 9.6 µM

Same question for `Cc1cccn2c(C(C)(C)NC(=O)[C@H]3[C@@H]4CNC[C@@H]43)ncc12.Cl` please.
> 9.63 µM

Same question for `Cc1cc2ccccc2c(C(C)(C)NC(=O)[C@H]2[C@@H]3CNC[C@@H]32)n1.Cl` please.
> 9.59 µM

###

# experimental_system: human SSTR5 (Homo sapiens (Human))
# Sequence (P35346 whole entry): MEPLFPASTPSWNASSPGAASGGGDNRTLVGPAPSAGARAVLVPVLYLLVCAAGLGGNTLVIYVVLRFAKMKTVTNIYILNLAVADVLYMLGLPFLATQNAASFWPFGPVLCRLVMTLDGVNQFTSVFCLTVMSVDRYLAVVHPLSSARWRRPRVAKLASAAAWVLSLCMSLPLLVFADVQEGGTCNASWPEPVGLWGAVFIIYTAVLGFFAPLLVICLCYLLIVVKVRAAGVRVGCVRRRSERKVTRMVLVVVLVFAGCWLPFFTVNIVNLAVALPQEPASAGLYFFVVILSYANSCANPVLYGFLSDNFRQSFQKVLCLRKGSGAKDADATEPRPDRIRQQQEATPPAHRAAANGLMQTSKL
# method_summary: Radioligand binding assay, CHO cell membranes expressing recombinant human SSTR5
measured_parameter: Ki

So what's the measured Ki for this one? `CC(C)(NC(=O)[C@H]1[C@@H]2CNC[C@@H]21)c1nccc2ccccc12.Cl`
> 9.86 µM

Same question for `Cc1cc2ccccc2c(C(C)(C)NC(=O)[C@H]2[C@@H]3CNC[C@@H]32)n1.Cl` please.
> 9.85 µM

###

# experimental_system: human Somatostatin 4 receptor (SSTR4) (Homo sapiens (Human), UniProt P31391)
# Sequence (P31391 whole entry): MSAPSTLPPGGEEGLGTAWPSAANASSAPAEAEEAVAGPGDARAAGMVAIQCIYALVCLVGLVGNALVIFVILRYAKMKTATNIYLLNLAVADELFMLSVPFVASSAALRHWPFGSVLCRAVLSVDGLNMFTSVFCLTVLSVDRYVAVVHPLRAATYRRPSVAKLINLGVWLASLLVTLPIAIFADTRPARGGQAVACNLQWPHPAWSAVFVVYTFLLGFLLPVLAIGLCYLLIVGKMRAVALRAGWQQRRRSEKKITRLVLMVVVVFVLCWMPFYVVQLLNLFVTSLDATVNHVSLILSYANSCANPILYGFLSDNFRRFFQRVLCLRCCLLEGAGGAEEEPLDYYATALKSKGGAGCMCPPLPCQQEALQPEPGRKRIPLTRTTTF
# method_summary: cAMP assay with human somatostatin 4 receptor (hSSTR4 expressing H4 cells)
# Assay type: cell-based
# condition_summary: cAMP assay, read-out: SSTR4 agonism EC50
Decision: EC50 beneath 10 nM gives t; EC50 meeting or exceeding 10 nM gives f.

CC(C)(NC(=O)[C@H]1[C@@H]2CNC[C@@H]21)c1ccc2nccn2c1 [Example 86]
f
Cn1nc(C(C)(C)NC(=O)[C@H]2[C@@H]3CNC[C@@H]32)c2cc(F)ccc21 [Example 73]
f
CC(C)(COc1ccnc2ccccc12)NC(=O)[C@H]1[C@@H]2CNC[C@@H]21 [Example 54]
f
CC(C)(NC(=O)[C@H]1[C@@H]2CNC[C@@H]21)c1ncc2ccc(C(F)(F)F)cn12 [Example 121]
f
CC(C)n1nc(C(C)(C)NC(=O)[C@H]2[C@@H]3CNC[C@@H]32)c2ccccc21 [Example 98]
f
Cc1cc(F)ccc1OCC(C)(C)NC(=O)[C@H]1[C@@H]2CNC[C@@H]21.Cl [Example 13]
t
Cc1ccccc1OCC(C)NC(=O)[C@H]1[C@@H]2CNC[C@@H]21.Cl (stereo partly shown) [Example 59]
f
Cc1cccn2c(C3(NC(=O)[C@H]4[C@@H]5CNC[C@@H]54)CCC3)ncc12 [Example 137]
t
Cc1nc(C(C)NC(=O)[C@H]2[C@@H]3CNC[C@@H]32)c2ccccc2n1 (single isomer, unassigned) [Example 163]
f
CC(C)(NC(=O)[C@H]1[C@@H]2CNC[C@@H]21)c1ncc2c(C(F)(F)F)cccn12 [Example 124]
f

Quick check: does O=C(NC1(c2ccccc2)CCCCC1)[C@H]1[C@@H]2CNC[C@@H]21 [Example 9] have EC50 under 10 nM?
f

Same question for CC(C)(NC(=O)[C@H]1[C@@H]2CNC[C@@H]21)c1noc2c(F)cccc12 [Example 101] please.
t

###

# method_summary: Metabolic stability in pooled human liver microsomes (half-life)
# Type: in vitro ADME
# condition_summary: pooled human liver microsomes, pH 7.6, 37° C., 1 μM test compound, read-out: Half-life t1/2
In this section we review reported half-life at 1 μM values for a set of compounds.

C[C@H](NC(=O)[C@H]1[C@@H]2CNC[C@@H]21)c1cccc2ccccc12
> 2.17 h
Cc1ccccc1OCC(C)(C)NC(=O)[C@H]1[C@@H]2CN(C)C[C@@H]21.Cl
2 h
CC(C)(NC(=O)[C@H]1[C@@H]2CNC[C@@H]21)c1nc(C2CC2)c2c(F)cccn12
> 2.17 h

Switching to the query record.
So what's the measured half-life at 1 μM for this one? `Cc1cc(F)cn2c(C(C)(C)NC(=O)[C@H]3[C@@H]4CNC[C@@H]43)ncc12`
> 2.17 h

###

# experimental_system: human Somatostatin 4 receptor (SSTR4) (Homo sapiens (Human))
# method_summary: cAMP assay with human somatostatin 4 receptor (hSSTR4 expressing H4 cells)
# Assay type: cell-based
# condition_summary: cAMP assay, read-out: SSTR4 agonism EC50
measured_parameter: pEC50
The meaning of pEC50 here: minus log10 of the concentration in molar units.

So what's the measured pEC50 for this one? `Cc1nccnc1OCC(C)(C)NC(=O)[C@H]1[C@@H]2CNC[C@@H]21`
6.79

###

# experimental_system: human Somatostatin 4 receptor (SSTR4) (Homo sapiens (Human), UniProt P31391)
# method_summary: cAMP assay with human somatostatin 4 receptor (hSSTR4 expressing H4 cells)
# Format: cell-based
# condition_summary: cAMP assay, read-out: SSTR4 agonism EC50
In this section we review reported pEC50 values for a set of compounds.
The meaning of pEC50 here: minus log10 of the concentration in molar units.

Below, 2 compounds whose answers are already recorded.
Cc1cccn2c([C@H](C)NC(=O)[C@H]3[C@@H]4CNC[C@@H]43)ncc12
7.81
CC(C)(NC(=O)[C@H]1[C@@H]2CNC[C@@H]21)c1cc2ccccn2c1
7.64

So what's the measured pEC50 for this one? `CC(C)(NC(=O)[C@H]1[C@@H]2CNC[C@@H]21)c1cn2ccccc2n1`
6.08

Same question for `CC(C)(NC(=O)[C@H]1[C@@H]2CNC[C@@H]21)c1cnn2ccccc12` please.
8.31

###

# experimental_system: UniProt P31391
# method_summary: cAMP assay with human somatostatin 4 receptor (hSSTR4 expressing H4 cells)
# Type: cell-based
# condition_summary: cAMP assay, read-out: SSTR4 agonism EC50
In this section we review reported log10 of EC50 values for a set of compounds.
Units before log transform: µM; reported quantity: EC50; transform: log10.

Below, 6 compounds whose answers are already recorded.
Cc1cccn2c(C3(NC(=O)[C@H]4[C@@H]5CNC[C@@H]54)CCOCC3)ncc12 [Example 182]
-1.16
Cc1ncccc1OCC(C)(C)NC(=O)[C@H]1[C@@H]2CNC[C@@H]21.Cl [Example 44]
-0.44
Cn1nc(C(C)(C)NC(=O)[C@H]2[C@@H]3CNC[C@@H]32)c2ccccc21 [Example 49]
-3.40
CC(NC(=O)[C@H]1[C@@H]2CNC[C@@H]21)c1nn(C)c2ccccc12 (single isomer, unassigned) [Example 112]
-0.92
CC(C)(COc1ccccc1Cl)NC(=O)[C@H]1[C@@H]2CNC[C@@H]21.Cl [Example 42]
-1.83
CC(C)(NC(=O)[C@H]1[C@@H]2CNC[C@@H]21)c1ccnc2ccccc12.Cl [Example 21]
-3.15

So what's the measured log10 of EC50 for this one? CC(C)(NC(=O)[C@H]1[C@@H]2CNC[C@@H]21)c1ncc2cccc(F)n12 [Example 135]
-2.12

Same question for CC(C)(NC(=O)[C@H]1[C@@H]2CNC[C@@H]21)c1ncc2ccccn12.Cl [Example 68] please.
-2.33

###

# experimental_system: human SSTR3 (Homo sapiens (Human))
# Sequence (P32745 whole entry): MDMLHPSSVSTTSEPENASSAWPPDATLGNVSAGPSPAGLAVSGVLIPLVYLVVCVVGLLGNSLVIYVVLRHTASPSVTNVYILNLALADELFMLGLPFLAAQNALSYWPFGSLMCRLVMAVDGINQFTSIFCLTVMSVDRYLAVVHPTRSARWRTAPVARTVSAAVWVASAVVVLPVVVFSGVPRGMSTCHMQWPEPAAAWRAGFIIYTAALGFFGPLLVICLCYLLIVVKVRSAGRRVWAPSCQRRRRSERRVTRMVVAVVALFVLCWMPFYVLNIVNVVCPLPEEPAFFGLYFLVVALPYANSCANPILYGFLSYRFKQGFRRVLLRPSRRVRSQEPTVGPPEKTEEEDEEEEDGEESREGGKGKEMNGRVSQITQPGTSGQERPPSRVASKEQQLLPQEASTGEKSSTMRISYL
# method_summary: Radioligand binding assay, CHO cell membranes expressing recombinant human SSTR3
measured_parameter: Ki

Below, 2 compounds whose answers are already recorded.
Cc1cc2cccnc2c(C(C)(C)NC(=O)[C@H]2[C@@H]3CNC[C@@H]32)n1
> 8.71 µM
Cc1cccnc1C(C)(C)NC(=O)[C@H]1[C@@H]2CNC[C@@H]21.Cl.Cl
> 8.64 µM

So what's the measured Ki for this one? `CC(C)(COc1nccc2ccccc12)NC(=O)[C@H]1[C@@H]2CNC[C@@H]21`
> 8.63 µM

Same question for `Cc1cccc2c(C(C)(C)NC(=O)[C@H]3[C@@H]4CNC[C@@H]43)n[nH]c12` please.
> 8.69 µM

Same question for `CC(C)(NC(=O)[C@H]1[C@@H]2CNC[C@@H]21)c1ccnc2ccccc12.Cl` please.
> 8.58 µM

Same question for `CC(C)(NC(=O)[C@H]1[C@@H]2CNC[C@@H]21)c1n[nH]c2ccccc12` please.
> 8.69 µM

Same question for `Cn1nc(C(C)(C)NC(=O)[C@H]2[C@@H]3CNC[C@@H]32)c2ccccc21` please.
> 8.62 µM

Source listed as patent US9789082B2.
